- System under test: RyR1 (Fundulus heteroclitus, UniProt A0A3Q2R0L4)
- Sequence (A0A3Q2R0L4 1-4852): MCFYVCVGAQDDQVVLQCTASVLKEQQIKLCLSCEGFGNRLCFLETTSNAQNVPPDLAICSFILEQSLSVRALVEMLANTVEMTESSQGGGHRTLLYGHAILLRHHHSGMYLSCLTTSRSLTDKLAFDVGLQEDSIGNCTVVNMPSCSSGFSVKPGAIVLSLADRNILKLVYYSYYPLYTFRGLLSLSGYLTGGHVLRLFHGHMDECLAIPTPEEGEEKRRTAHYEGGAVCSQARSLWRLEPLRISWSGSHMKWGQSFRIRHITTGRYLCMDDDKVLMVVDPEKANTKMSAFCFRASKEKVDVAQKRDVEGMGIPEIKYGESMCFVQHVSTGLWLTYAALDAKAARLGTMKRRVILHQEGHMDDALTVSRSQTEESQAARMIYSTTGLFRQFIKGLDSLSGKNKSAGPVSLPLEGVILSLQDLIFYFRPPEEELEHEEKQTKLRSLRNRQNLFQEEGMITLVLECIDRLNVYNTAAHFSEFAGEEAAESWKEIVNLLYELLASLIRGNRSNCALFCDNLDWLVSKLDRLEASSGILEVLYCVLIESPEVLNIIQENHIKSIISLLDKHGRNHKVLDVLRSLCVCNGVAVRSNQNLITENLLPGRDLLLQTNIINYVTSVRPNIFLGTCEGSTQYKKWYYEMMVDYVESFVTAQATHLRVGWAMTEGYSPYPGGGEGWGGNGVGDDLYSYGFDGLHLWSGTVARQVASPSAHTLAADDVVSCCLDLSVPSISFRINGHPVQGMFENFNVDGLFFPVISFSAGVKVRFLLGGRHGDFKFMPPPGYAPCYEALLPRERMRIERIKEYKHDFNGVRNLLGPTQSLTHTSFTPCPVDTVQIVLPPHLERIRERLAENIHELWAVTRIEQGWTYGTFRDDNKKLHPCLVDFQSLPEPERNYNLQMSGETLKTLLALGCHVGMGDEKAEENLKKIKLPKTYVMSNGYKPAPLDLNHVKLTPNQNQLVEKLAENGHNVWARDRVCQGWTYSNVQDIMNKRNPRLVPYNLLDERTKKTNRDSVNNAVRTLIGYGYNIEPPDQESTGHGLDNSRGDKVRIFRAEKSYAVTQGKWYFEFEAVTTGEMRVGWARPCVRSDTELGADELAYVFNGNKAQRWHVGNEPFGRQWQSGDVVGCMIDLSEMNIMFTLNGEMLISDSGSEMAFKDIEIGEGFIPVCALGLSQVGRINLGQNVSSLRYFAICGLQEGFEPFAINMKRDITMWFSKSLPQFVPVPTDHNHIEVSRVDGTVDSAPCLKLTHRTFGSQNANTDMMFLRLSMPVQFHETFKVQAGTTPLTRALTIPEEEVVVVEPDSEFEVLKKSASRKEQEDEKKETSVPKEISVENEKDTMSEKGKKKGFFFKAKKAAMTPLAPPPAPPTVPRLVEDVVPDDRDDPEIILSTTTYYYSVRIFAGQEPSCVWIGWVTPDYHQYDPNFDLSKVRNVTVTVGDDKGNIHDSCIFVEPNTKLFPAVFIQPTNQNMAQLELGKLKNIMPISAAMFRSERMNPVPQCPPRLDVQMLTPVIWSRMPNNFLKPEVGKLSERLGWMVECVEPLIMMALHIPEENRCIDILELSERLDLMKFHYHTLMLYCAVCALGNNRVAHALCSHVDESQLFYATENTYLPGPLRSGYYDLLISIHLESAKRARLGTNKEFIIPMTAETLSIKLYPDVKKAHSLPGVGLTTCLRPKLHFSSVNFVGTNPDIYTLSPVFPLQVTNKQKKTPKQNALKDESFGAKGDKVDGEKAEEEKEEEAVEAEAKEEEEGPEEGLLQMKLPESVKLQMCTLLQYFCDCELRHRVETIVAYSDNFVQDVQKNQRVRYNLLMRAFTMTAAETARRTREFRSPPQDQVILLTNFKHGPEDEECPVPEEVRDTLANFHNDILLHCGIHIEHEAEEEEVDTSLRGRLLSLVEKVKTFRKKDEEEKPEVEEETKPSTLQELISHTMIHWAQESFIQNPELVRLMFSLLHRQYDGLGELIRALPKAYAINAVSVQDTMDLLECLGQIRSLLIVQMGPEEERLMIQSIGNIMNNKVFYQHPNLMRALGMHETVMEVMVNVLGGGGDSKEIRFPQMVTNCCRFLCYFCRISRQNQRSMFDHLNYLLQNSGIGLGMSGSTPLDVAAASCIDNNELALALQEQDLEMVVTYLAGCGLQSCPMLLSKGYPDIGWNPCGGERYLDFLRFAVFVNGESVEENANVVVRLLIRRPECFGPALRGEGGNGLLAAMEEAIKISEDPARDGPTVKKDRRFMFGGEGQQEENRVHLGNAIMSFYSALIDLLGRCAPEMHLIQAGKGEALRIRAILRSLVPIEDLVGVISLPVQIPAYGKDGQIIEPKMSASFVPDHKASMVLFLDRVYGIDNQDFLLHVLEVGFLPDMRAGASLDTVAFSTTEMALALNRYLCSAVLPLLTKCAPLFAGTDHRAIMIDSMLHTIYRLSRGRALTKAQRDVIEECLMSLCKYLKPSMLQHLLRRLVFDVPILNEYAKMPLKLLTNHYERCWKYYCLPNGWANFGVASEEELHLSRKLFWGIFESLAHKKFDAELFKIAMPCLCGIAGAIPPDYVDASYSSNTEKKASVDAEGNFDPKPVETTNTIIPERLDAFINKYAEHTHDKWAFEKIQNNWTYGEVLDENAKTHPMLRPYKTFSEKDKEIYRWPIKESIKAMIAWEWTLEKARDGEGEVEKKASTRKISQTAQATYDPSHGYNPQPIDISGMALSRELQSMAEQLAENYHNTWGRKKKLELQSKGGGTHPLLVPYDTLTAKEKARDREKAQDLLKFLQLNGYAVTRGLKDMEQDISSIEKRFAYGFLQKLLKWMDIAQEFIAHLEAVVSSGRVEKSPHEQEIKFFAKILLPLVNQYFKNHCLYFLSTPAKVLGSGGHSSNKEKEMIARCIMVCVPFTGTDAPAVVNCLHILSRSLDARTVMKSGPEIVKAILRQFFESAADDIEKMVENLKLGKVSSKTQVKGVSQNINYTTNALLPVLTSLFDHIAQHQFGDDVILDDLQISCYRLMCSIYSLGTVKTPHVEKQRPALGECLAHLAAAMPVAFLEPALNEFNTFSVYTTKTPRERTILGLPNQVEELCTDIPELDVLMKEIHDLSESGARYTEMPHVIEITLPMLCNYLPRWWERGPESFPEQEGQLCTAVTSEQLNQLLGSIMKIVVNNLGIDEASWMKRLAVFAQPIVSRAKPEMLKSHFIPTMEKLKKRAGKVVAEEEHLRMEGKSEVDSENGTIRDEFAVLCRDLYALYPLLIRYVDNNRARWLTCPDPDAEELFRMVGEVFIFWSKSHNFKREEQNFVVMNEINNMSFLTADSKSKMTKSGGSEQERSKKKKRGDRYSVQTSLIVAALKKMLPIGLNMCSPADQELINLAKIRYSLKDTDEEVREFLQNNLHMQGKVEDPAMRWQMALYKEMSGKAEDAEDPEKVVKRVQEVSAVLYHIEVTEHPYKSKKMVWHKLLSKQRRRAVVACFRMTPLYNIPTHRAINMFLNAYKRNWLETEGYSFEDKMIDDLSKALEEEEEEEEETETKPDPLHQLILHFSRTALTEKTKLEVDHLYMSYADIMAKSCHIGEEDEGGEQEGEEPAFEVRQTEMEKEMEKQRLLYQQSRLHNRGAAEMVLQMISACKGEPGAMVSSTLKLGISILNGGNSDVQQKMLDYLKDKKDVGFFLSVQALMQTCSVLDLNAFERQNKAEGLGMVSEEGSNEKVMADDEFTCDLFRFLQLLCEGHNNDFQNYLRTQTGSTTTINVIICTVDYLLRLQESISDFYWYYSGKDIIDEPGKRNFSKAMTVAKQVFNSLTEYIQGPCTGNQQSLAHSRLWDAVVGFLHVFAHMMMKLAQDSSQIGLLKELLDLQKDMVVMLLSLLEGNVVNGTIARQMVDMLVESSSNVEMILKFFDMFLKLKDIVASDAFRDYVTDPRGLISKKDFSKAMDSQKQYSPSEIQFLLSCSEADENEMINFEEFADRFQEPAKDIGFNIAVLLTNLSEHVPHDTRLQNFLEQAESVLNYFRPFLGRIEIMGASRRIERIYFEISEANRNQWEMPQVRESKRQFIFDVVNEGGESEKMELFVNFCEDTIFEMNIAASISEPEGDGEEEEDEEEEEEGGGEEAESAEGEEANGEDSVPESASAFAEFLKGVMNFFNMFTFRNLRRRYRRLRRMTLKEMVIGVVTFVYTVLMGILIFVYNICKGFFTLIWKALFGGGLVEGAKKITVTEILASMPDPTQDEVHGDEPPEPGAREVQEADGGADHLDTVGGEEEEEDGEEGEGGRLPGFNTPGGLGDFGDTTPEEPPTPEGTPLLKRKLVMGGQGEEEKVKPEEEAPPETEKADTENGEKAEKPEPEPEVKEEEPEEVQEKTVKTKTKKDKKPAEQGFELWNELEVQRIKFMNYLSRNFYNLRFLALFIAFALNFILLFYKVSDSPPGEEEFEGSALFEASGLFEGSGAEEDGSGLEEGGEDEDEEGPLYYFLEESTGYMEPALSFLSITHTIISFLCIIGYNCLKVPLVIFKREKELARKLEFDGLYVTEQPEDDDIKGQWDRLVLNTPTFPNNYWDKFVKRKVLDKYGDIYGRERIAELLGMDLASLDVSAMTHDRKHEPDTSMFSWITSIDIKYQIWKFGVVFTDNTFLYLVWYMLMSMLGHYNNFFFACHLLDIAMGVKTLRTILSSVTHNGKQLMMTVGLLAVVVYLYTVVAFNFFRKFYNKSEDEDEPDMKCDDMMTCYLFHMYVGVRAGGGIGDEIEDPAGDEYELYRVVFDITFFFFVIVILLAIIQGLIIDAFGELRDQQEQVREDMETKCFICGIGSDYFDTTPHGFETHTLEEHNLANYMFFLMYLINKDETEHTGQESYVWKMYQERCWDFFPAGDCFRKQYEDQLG
- Assay explanation: PCB 95 induced [^3H]Ry binding
- Format: biochemical
- Test parameters: read-out: half-maximal effect concentration (EC50); SC killifish skeletal muscle; 95% CI 36.6–84.6
Measurement kind: pEC50
Answers are plain numbers, as −log10 of the molar value.

Form field: pEC50 recorded for Clc1ccc(Cl)c(-c2c(Cl)ccc(Cl)c2Cl)c1 with RyR1 (Fundulus heteroclitus, UniProt A0A3Q2R0L4) (enter value) 7.25

---

- System under test: RyR1 (Fundulus heteroclitus)
- Assay explanation: PCB 95 induced [^3H]Ry binding
- Type: biochemical
- Test parameters: read-out: half-maximal effect concentration (EC50); NBH killifish skeletal muscle; 95% CI 77.7–119.1
Measurement kind: pEC50
Answers are plain numbers, as −log10 of the molar value.

Any idea what its pEC50 is? The compound is Clc1ccc(Cl)c(-c2c(Cl)ccc(Cl)c2Cl)c1 7.02
